The values you see were collected from patent US20160002204A1.

Target: GLS1 (purified recombinant human GAC) (Homo sapiens, UniProt O94925)
Sequence (O94925 55-598 isoform O94925-3 limits assumed): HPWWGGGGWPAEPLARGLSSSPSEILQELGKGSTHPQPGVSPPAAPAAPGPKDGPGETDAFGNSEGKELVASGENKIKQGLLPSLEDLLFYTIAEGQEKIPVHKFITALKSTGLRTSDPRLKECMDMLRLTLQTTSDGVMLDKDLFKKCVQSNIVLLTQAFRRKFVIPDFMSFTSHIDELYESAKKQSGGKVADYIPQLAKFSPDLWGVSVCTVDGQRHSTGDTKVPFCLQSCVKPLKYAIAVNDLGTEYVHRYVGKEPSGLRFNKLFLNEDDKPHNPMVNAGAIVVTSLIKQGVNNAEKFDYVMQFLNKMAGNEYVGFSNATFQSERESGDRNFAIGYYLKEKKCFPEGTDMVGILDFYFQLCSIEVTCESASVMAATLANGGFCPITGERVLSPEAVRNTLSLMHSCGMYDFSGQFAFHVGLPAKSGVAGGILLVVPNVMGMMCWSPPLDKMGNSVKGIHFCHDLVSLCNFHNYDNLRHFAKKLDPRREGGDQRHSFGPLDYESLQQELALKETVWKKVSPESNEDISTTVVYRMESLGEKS
Assay: GLS1 enzymatic activity assay (dual-coupled, Amplex UltraRed/resorufin)
Property Name: IC50

In [3]: df
Out[3]:
                                   molecule  observed_measurement
0  Cc1ccc(CNC(=O)c2nnc(CCCCn3ccc(NC(=O)Cc4ccccc4)cc3=O)s2)cn1              < 100 nM
1  CC(C)(C)OC(=O)Nc1ccn(CCC(F)Cn2cc(C(=O)NCc3cc(Cl)ccc3F)nn2)c(=O)c1 (centres unmarked)              < 100 nM
2  O=C1CN(CC(=O)Nc2ccn(CCC(F)Cn3cc(C(=O)NCc4cccc(OC(F)(F)F)c4)nn3)c(=O)c2)CCN1 (centres unmarked)         100 to 500 nM
3  O=C(Nc1ccn(CCC(F)Cn2cc(C(=O)NCc3cc(C(F)(F)F)ccn3)nn2)c(=O)n1)OCc1ccccc1 (centres unmarked)              < 100 nM
4  CS(=O)(=O)c1cccc(CNC(=O)c2cn(CCCCn3ccc(NC(=O)Cc4cccc(OC(F)(F)F)c4)cc3=O)nn2)c1              < 100 nM
5  O=C(CN1CC2CC(C2)C1)Nc1ccn(CCC(F)Cn2cc(C(=O)NCc3cc(C(F)(F)F)ccn3)nn2)c(=O)c1F (centres unmarked)              < 100 nM
6  O=C(NCc1cc(C(F)(F)F)ccn1)c1cn(CC(F)CCn2ccc(COc3cccc(F)c3)cc2=O)nn1 (centres unmarked)              < 100 nM
7  CC(C)(C)OC(=O)Nc1ccn(CCC(F)Cn2cc(C(=O)NCc3cccc(OC(F)(F)F)c3)nn2)c(=O)c1 (centres unmarked)              < 100 nM
8  O=C(Nc1ccn(CCC(F)Cn2cc(C(=O)NCc3cc(C(F)(F)F)ccn3)nn2)c(=O)n1)NC1CCC1 (centres unmarked)        500 to 5000 nM
9  COCCNC(=O)c1nnc(CCCCn2ccc(NC(=O)Cc3ccccc3)cc2=O)s1        500 to 5000 nM

Go through the list and state IC50 for each entry.
1. CC(C)(C)OC(=O)N1CCC(CC(=O)Nc2ccn(CC(F)CCn3cc(C(=O)NCc4cccc(OC(F)(F)F)c4)nn3)c(=O)c2F)CC1 (centres unmarked)
2. O=C(Cc1cccc(OC(F)(F)F)c1)Nc1ccn(CCCCc2nnc(C(=O)NCc3ccccn3)s2)c(=O)c1
3. C[C@H]1CCN(C(=O)C(=O)Nc2ccn(CCC(F)Cn3cc(C(=O)NCc4cc(OC(F)(F)F)ccc4F)nn3)c(=O)c2F)C1 (some centres unmarked)
4. O=C(Nc1ccn(CCC(F)Cn2cc(C(=O)NCc3ccccn3)nn2)c(=O)c1F)C(=O)N1CCCCC1 (centres unmarked)
5. CO[C@H](C(=O)Nc1ccn(CCC(F)Cn2cc(C(=O)NCc3cccc(OC(F)(F)F)c3)nn2)c(=O)c1F)c1ccccc1 (some centres unmarked)

Solution:
["500 to 5000 nM", "< 100 nM", "< 100 nM", "500 to 5000 nM", "< 100 nM"]

For each of the molecules below, state IC50.
1. O=C(CN1CCCC(CO)C1)Nc1ccn(CCC(F)Cn2cc(C(=O)NCc3cccc(OC(F)(F)F)c3)nn2)c(=O)c1 (centres unmarked)
2. O=C(Cc1ccccc1)Nc1ccn(CC(F)CCn2cc(C(=O)NCc3ncccc3F)nn2)c(=O)c1 (centres unmarked)

Solution:
1: < 100 nM; 2: 100 to 500 nM

// for each molecule in input: emit IC50
1. O=C(Cc1ccccc1)Nc1ccn(CCC(F)Cn2cc(C(=O)NCc3cccc(OC(F)(F)F)c3)nn2)c(=O)c1F (centres unmarked)
2. O=C(Cc1ccccc1)Nc1ccn(CCCCn2cc(C(=O)NCc3ccccc3)nn2)c(=O)c1
3. O=C(CC1CCCCC1)Nc1ccn(CCCCn2cc(C(=O)NCc3cccnc3)nn2)c(=O)c1

Solution:
< 100 nM
100 to 500 nM
< 100 nM
